Attribution: ChEMBL document CHEMBL4354828

The reader will find reported MIC values listed item by item below.
Test system: Pseudomonas aeruginosa
Assay: Inhibition of VIM in Pseudomonas aeruginosa CDC-0457 assessed as cefepime antibacterial activity at 8 ug/ml after 16 to 20 hrs by CLSI-based microbroth dilution method

{"columns": ["Chemical Structure", "Modifier", "MIC / µg/mL"],
 "data": [
  ["O=C(O)C[C@@H]1CC[C@H](NC(=O)Cc2cccs2)B(O)O1", ">", 16],
  ["NCCN[C@H]1CC[C@H](CC(=O)N[C@H]2Cc3cccc(C(=O)O)c3OB2O)CC1", "=", 0.125],
  ["NCc1ccc(CC(=O)N[C@H]2Cc3cccc(C(=O)O)c3OB2O)cc1", "=", 8],
  ["C[C@]1(Cn2ccnn2)[C@H](C(=O)O)N2C(=O)C[C@H]2S1(=O)=O", ">", 16],
  ["NC(=O)[C@@H]1CC[C@@H]2CN1C(=O)N2OS(=O)(=O)O", ">", 16],
  ["CC(=O)N[C@H]1Cc2cccc(C(=O)O)c2OB1O", ">", 16],
  ["N[C@H]1CC[C@H](CC(=O)N[C@H]2Cc3cccc(C(=O)O)c3OB2O)CC1", "=", 2]
]}

###

The reader will find reported MIC values listed item by item below.
Tested on: Pseudomonas aeruginosa
Assay: Inhibition of VIM in Pseudomonas aeruginosa CDC-0457 assessed as piperacillin antibacterial activity at 16 ug/ml after 16 to 20 hrs by CLSI-based microbroth dilution method

{"columns": ["Chemical Structure", "System Under Test", "MIC"],
 "data": [
  ["N[C@H]1CC[C@H](CC(=O)N[C@H]2Cc3cccc(C(=O)O)c3OB2O)CC1", "Pseudomonas aeruginosa", "> 16 mg/L"],
  ["O=C(O)C[C@@H]1CC[C@H](NC(=O)Cc2cccs2)B(O)O1", "Pseudomonas aeruginosa", "> 16 mg/L"],
  ["NCc1ccc(CC(=O)N[C@H]2Cc3cccc(C(=O)O)c3OB2O)cc1", "Pseudomonas aeruginosa", "> 16 mg/L"],
  ["NC(=O)[C@@H]1CC[C@@H]2CN1C(=O)N2OS(=O)(=O)O", "Pseudomonas aeruginosa", "> 16 mg/L"],
  ["NCCN[C@H]1CC[C@H](CC(=O)N[C@H]2Cc3cccc(C(=O)O)c3OB2O)CC1", "Pseudomonas aeruginosa", "16 mg/L"],
  ["CC(=O)N[C@H]1Cc2cccc(C(=O)O)c2OB1O", "Pseudomonas aeruginosa", "> 16 mg/L"]
]}

###

The reader will find reported MIC values listed item by item below.
Test system: Klebsiella pneumoniae
Experiment: Inhibition of VIM-27/CTX-M-15/SHV-11/OXA-1 in Klebsiella pneumoniae CDC-0040 assessed as meropenem antibacterial activity at 4 ug/ml after 16 to 20 hrs by CLSI-based microbroth dilution method
Assay Metric: MIC

{"columns": ["Chemical Structure", "Reported Result"],
 "data": [
  ["NC(=O)[C@@H]1CC[C@@H]2CN1C(=O)N2OS(=O)(=O)O", "> 16 µg/mL"],
  ["NCc1ccc(CC(=O)N[C@H]2Cc3cccc(C(=O)O)c3OB2O)cc1", "> 16 µg/mL"],
  ["N[C@H]1CC[C@H](CC(=O)N[C@H]2Cc3cccc(C(=O)O)c3OB2O)CC1", "> 16 µg/mL"],
  ["O=C(O)C[C@@H]1CC[C@H](NC(=O)Cc2cccs2)B(O)O1", "> 16 µg/mL"],
  ["NCCN[C@H]1CC[C@H](CC(=O)N[C@H]2Cc3cccc(C(=O)O)c3OB2O)CC1", "8 µg/mL"],
  ["CC(=O)N[C@H]1Cc2cccc(C(=O)O)c2OB1O", "> 16 µg/mL"]
]}

###

Experiment: Half life in mouse at 10 mg/kg, iv after 1 to 6 hrs by LC-MS/MS analysis
Type: ADME, organism-based
Conditions: in vivo

{"columns": ["Chemical Structure", "half-life [min]"],
 "data": [
  ["NC(=O)[C@@H]1CC[C@@H]2CN1C(=O)N2OS(=O)(=O)O", 6],
  ["NCCN[C@H]1CC[C@H](CC(=O)N[C@H]2Cc3cccc(C(=O)O)c3OB2O)CC1", 9.6]
]}

###

Test system: Pseudomonas aeruginosa
Experiment: Inhibition of VIM in Pseudomonas aeruginosa CDC-0457 assessed as meropenem antibacterial activity at 4 ug/ml after 16 to 20 hrs by CLSI-based microbroth dilution method

{"columns": ["Chemical Structure", "MIC"],
 "data": [
  ["C[C@]1(Cn2ccnn2)[C@H](C(=O)O)N2C(=O)C[C@H]2S1(=O)=O", "> 16 µg/mL"],
  ["NCCN[C@H]1CC[C@H](CC(=O)N[C@H]2Cc3cccc(C(=O)O)c3OB2O)CC1", "> 16 µg/mL"],
  ["O=C(O)C[C@@H]1CC[C@H](NC(=O)Cc2cccs2)B(O)O1", "> 16 µg/mL"],
  ["NC(=O)[C@@H]1CC[C@@H]2CN1C(=O)N2OS(=O)(=O)O", "> 16 µg/mL"],
  ["CC(=O)N[C@H]1Cc2cccc(C(=O)O)c2OB1O", "> 16 µg/mL"],
  ["N[C@H]1CC[C@H](CC(=O)N[C@H]2Cc3cccc(C(=O)O)c3OB2O)CC1", "> 16 µg/mL"],
  ["NCc1ccc(CC(=O)N[C@H]2Cc3cccc(C(=O)O)c3OB2O)cc1", "> 16 µg/mL"]
]}

###

Tested on: Escherichia coli
Assay: Inhibition of NDM-1/CMY-6/OXA-1 in Escherichia coli CDC-0055 assessed as piperacillin antibacterial activity at 16 ug/ml after 16 to 20 hrs by CLSI-based microbroth dilution method

{"columns": ["Compound", "Modifier", "MIC, µg/mL"],
 "data": [
  ["C[C@]1(Cn2ccnn2)[C@H](C(=O)O)N2C(=O)C[C@H]2S1(=O)=O [TAZOBACTAM]", ">", 16],
  ["O=C(O)C[C@@H]1CC[C@H](NC(=O)Cc2cccs2)B(O)O1 [VABORBACTAM]", ">", 16],
  ["NCc1ccc(CC(=O)N[C@H]2Cc3cccc(C(=O)O)c3OB2O)cc1", "=", 16],
  ["NCCN[C@H]1CC[C@H](CC(=O)N[C@H]2Cc3cccc(C(=O)O)c3OB2O)CC1", "=", 16],
  ["CC(=O)N[C@H]1Cc2cccc(C(=O)O)c2OB1O", ">", 16],
  ["N[C@H]1CC[C@H](CC(=O)N[C@H]2Cc3cccc(C(=O)O)c3OB2O)CC1", ">", 16],
  ["NC(=O)[C@@H]1CC[C@@H]2CN1C(=O)N2OS(=O)(=O)O [AVIBACTAM]", "=", 16]
]}

###

Tested on: Pseudomonas aeruginosa
Experiment: Inhibition of KPC-2/PDC-42 in Pseudomonas aeruginosa CDC-0356 assessed as cefepime antibacterial activity at 8 ug/ml after 16 to 20 hrs by CLSI-based microbroth dilution method (Rvb > […] ug/ml)
The reader will find reported MIC values listed item by item below.
Assay Metric: MIC (µg/mL)

{"columns": ["Compound", "Assay Metric", "Modifier", "Reported Result"],
 "data": [
  ["NCCN[C@H]1CC[C@H](CC(=O)N[C@H]2Cc3cccc(C(=O)O)c3OB2O)CC1", "MIC", "=", 1],
  ["NC(=O)[C@@H]1CC[C@@H]2CN1C(=O)N2OS(=O)(=O)O [AVIBACTAM]", "MIC", "=", 1],
  ["C[C@]1(Cn2ccnn2)[C@H](C(=O)O)N2C(=O)C[C@H]2S1(=O)=O [TAZOBACTAM]", "MIC", ">", 16],
  ["O=C(O)C[C@@H]1CC[C@H](NC(=O)Cc2cccs2)B(O)O1 [VABORBACTAM]", "MIC", ">", 16],
  ["N[C@H]1CC[C@H](CC(=O)N[C@H]2Cc3cccc(C(=O)O)c3OB2O)CC1", "MIC", "=", 4],
  ["NCc1ccc(CC(=O)N[C@H]2Cc3cccc(C(=O)O)c3OB2O)cc1", "MIC", "=", 2],
  ["CC(=O)N[C@H]1Cc2cccc(C(=O)O)c2OB1O", "MIC", "=", 2]
]}

###

Tested on: Pseudomonas aeruginosa
Experiment: Inhibition of KPC-2/PDC-42 in Pseudomonas aeruginosa CDC-0356 assessed as piperacillin antibacterial activity at 16 ug/ml after 16 to 20 hrs by CLSI-based microbroth dilution method (Rvb > […] ug/ml)
Assay Metric: MIC (µg/mL)

{"columns": ["Chemical Structure", "Modifier", "Reported Result"],
 "data": [
  ["NCCN[C@H]1CC[C@H](CC(=O)N[C@H]2Cc3cccc(C(=O)O)c3OB2O)CC1", "=", 1],
  ["CC(=O)N[C@H]1Cc2cccc(C(=O)O)c2OB1O", "=", 2],
  ["NCc1ccc(CC(=O)N[C@H]2Cc3cccc(C(=O)O)c3OB2O)cc1", "=", 2],
  ["N[C@H]1CC[C@H](CC(=O)N[C@H]2Cc3cccc(C(=O)O)c3OB2O)CC1", "=", 4],
  ["NC(=O)[C@@H]1CC[C@@H]2CN1C(=O)N2OS(=O)(=O)O", "=", 1],
  ["O=C(O)C[C@@H]1CC[C@H](NC(=O)Cc2cccs2)B(O)O1", ">", 16],
  ["C[C@]1(Cn2ccnn2)[C@H](C(=O)O)N2C(=O)C[C@H]2S1(=O)=O", ">", 16]
]}
